Molecular target: T1, biotinylated Recombinant Human Tumor Necrosis Factor-alpha (Prospec, Catalog Number #CYT-223) (human, UniProt P01375 77-233, biotinylated with EZ-Link NHS-PEG4-Biotin (Thermo scientific 21329); sites not stated)
T1 construct: Bought protein; also called TNFα; tumor necrosis factor-α
T1 sequence (P01375 77-233 limits assumed): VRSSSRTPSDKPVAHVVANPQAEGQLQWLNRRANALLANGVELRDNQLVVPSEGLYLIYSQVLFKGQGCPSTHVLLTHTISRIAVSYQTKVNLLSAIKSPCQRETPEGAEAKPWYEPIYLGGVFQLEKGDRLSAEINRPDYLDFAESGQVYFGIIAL
Assay: ECL immunoassay (MSD): biotinylated target on streptavidin plate, translated FlPu(urea)-labelled cyclic peptide (Translation Solution T), anti-fluorescein and SULFO-TAG anti-mouse antibody; no-template control 232
Starred links: 1 amine or outer side, 2 acyl side, 3 side chain; linkers in the order of their positions; H or OH if unused. Positions of bridges follow the written chain, without caps; N, C: chain ends. Non-standard residues stand in square brackets, D forms with d. Hyp(Et) = (2S,4R)-4-ethoxypyrrolidine-2-carboxylic acid, CCO[C@@H]1C[C@@H](C(=O)[*:2])N([*:1])C1; Phe(4-CF3) = N[C@@H](Cc1ccc(C(F)(F)F)cc1)C(=O)O; NMeAla(4-thiazolyl) = CN[C@@H](Cc1cscn1)C(=O)O; Met(O2) = CS(=O)(=O)CC[C@H](N)C(=O)O; NMeF = CN[C@@H](Cc1ccccc1)C(=O)O; FlPu(urea) = not defined here; Phg = N[C@H](C(=O)O)c1ccccc1; NMeS = CN[C@@H](CO)C(=O)O; βAla = NCCC(=O)O; Sar = CNCC(=O)O
Kindly supply the reported ECL signal values for the records listed here.
Numbers only.

Previously resolved entries follow.
binder="ATIP[dY]WW[Phe(4-CF3)][Met(O2)]VDW[NMeAla(4-thiazolyl)]SGSGSGS-{FlPu(urea)} (lactam N-11; reading uncertain, Translated in ECL Translation Solution T, cyclized and desulfurized; not isolated; also called translation product of template DNA DME-10) [SEQ ID NO: PE-10 (TNFα binder) peptide]" measurement=50700
binder="ATWI[NMeF][Phg]W[βAla][Phe(4-CF3)][Phg]DVTSGSGSGS-{FlPu(urea)} (lactam N-11; reading uncertain, Translated in ECL Translation Solution T, cyclized and desulfurized; not isolated; also called translation product of template DNA DME-11) [SEQ ID NO: PE-11 (TNFα binder) peptide]" measurement=149000
binder="A[Phe(4-CF3)]WWV[Sar]GP[Hyp(Et)]SD[NMeS][Met(O2)]SGSGSGS-{FlPu(urea)} (lactam N-11; reading uncertain, Translated in ECL Translation Solution T, cyclized and desulfurized; not isolated; also called translation product of template DNA DME-8) [SEQ ID NO: PE-8 (TNFα binder) peptide]" measurement=73300

Let us move to another entry and its ECL signal.
Request: I'd like to know its ECL signal. The binder in question is A[NMeAla(4-thiazolyl)]IPVWW[Phe(4-CF3)][Met(O2)]VDW[NMeAla(4-thiazolyl)]SGSGSGS-{FlPu(urea)} (lactam N-11; reading uncertain, Translated in ECL Translation Solution T, cyclized and desulfurized; not isolated; also called translation product of template DNA DME-9) [SEQ ID NO: PE-9 (TNFα binder) peptide]
Response: 264000
